Test Name: protein stability index of a GFP-peptide fusion (yeast GPS) (PSI 1-4); higher = more stable; sorted into four equal gates, so the index is relative within each strain
Reported Conditions: pdr5∆
Each record here notes measured protein stability index.
Enter a number only.

>  <Sequence Record>
VLIKMVKMLRDNPGYKA [SIR3]

>  <protein stability index>
3.47

$$$$
>  <Sequence Record>
GLIPYPHHNQSPRNTYQ [RET1]

>  <protein stability index>
2.77

$$$$
>  <Sequence Record>
AFDIELSEFGIKKMLHL [YCS4]

>  <protein stability index>
3.09

$$$$
>  <Sequence Record>
PKDPSNVETYEQILQWV [BRR2]

>  <protein stability index>
2.48

$$$$

Qu. Fill in: protein stability index of LNDRKVLFAAYKVEHPF [RPB11] is ___
Ans. 2.23

Qu. Fill in: protein stability index of ILERAYKKLDIDGKVIQ [SNF2] is ___
Ans. 3.34

Qu. Fill in: protein stability index of SEENIGSGLLKLSEIIL [SWI1] is ___
Ans. 3.02

Qu. Fill in: protein stability index of HECRLRDMTYSAPIYVD [RET1] is ___
Ans. 1.67

Qu. Fill in: protein stability index of GLIYSFNEENGEDSTKP [POP1] is ___
Ans. 3.21

Qu. Fill in: protein stability index of NNNNNNNNNNNNDDNGN [MED2] is ___
Ans. 2.94

Qu. Fill in: protein stability index of TLSNGLIASHYGVSFFT [BRR2] is ___
Ans. 2.84

Qu. Fill in: protein stability index of FEDATREQHIDTICQSI [SNF5] is ___
Ans. 3.21

====

Test Name: protein stability index of a GFP-peptide fusion (yeast GPS) (PSI 1-4); higher = more stable; sorted into four equal gates, so the index is relative within each strain
Reported Conditions: pdr5∆
Record rule met whenever protein stability index is at 3 or higher; record rule not met when lower.

>  <Sequence Record>
RGSSSLYTLVINDAGKA [RPL38]

>  <Class>
rule not met

$$$$
>  <Sequence Record>
LNTLLVTSADSNLKISL [SWI1]

>  <Class>
rule not met

$$$$
>  <Sequence Record>
QPSDVKPTSHKQLQQPK [SIR4]

>  <Class>
rule met

$$$$
>  <Sequence Record>
AHRGIRHFWGLRVRGQH [RPS18A]

>  <Class>
rule not met

$$$$
>  <Sequence Record>
ASKKSGGDVVKFQKLLQ [SMC4]

>  <Class>
rule met

$$$$
>  <Sequence Record>
FFGPTYYQRLRHMVDDK [RPB2]

>  <Class>
rule not met

$$$$

Qu. Quick check: does MTDIWNTLIPESSLTIS [ECM29] have protein stability index greater than or equal to 3?
Ans. rule not met

Qu. Quick check: does GSYNAFEPASRLQGIKL [COR1] have protein stability index greater than or equal to 3?
Ans. rule met

Qu. Quick check: does NGQEQQGPVKNTQLHGP [RGR1] have protein stability index greater than or equal to 3?
Ans. rule met

Qu. Quick check: does LPSGVLSRGDDEVTIRR [SMC3] have protein stability index greater than or equal to 3?
Ans. rule met

Qu. Quick check: does VITLLNNSSITLRCSVV [YCS4] have protein stability index greater than or equal to 3?
Ans. rule not met

Qu. Quick check: does NSTHLLPLQPIEIDYTV [SNF12] have protein stability index greater than or equal to 3?
Ans. rule not met
